Cited source: patent US20240368163A1

Each entry below carries its recorded IC50.
Tested on: MYB
Method Description: HiBiT protein abundance assay, MYB
Type: cell-based, human
Condition Summary: Homo sapiens, K562, 24 h, Table 13B, modified K562 cells
Measurement Type: IC50

>>> measured_result("C[C@H]1C[C@@H](N(C)c2ccc(-c3ccc(-n4cccn4)c(=O)[nH]3)nn2)CCN1 [Compound 903]")
"> 10000 nM"
>>> measured_result("COc1nc(-c2ccc(N(C)C3CC(C)(C)NC(C)(C)C3)nc2)ccc1-n1cccn1 [Compound 995]")
"1000 to 10000 nM"
>>> measured_result("COc1nc(-c2ccc(N(C)[C@@H]3C[C@H]4CC[C@@H](C3)N4)cn2)ccc1-c1cn[nH]c1 [Compound 978]")
"1000 to 10000 nM"
>>> measured_result("COc1cc(-c2ccc(N3CCC(NC(C)(C)C)C3)nn2)ncc1-n1cccn1 (stereo not shown) [Compound 972]")
"1000 to 10000 nM"
>>> measured_result("COc1nc(-c2cnc(N(C)[C@@H]3C[C@H]4CC[C@@H](C3)N4)nc2)ccc1-c1cn[nH]c1 [Compound 981]")
"100 to 1000 nM"
>>> measured_result("COc1nc(-c2ccc(OC3CC(C)(C)NC(C)(C)C3)nc2)ccc1-n1cccn1 [Compound 991]")
"> 10000 nM"
>>> measured_result("COc1nc(-c2ccc(N(C)[C@@H]3CCN[C@H](C)C3)nn2)ccc1-c1cn[nH]c1 [Compound 909]")
"1000 to 10000 nM"
>>> measured_result("COc1nc(-c2ccc(OC3CC(C)(C)NC(C)(C)C3)nn2)ccc1-c1cnn(C)n1 [Compound 926]")
"1000 to 10000 nM"
>>> measured_result("COc1nc(-c2ccc(N(C)C3CC(C)(C)NC(C)(C)C3)nn2)ccc1-n1cccn1 [Compound 935]")
"100 to 1000 nM"
>>> measured_result("COc1nc(-c2ccc(N(C)[C@@H]3C[C@H]4CC[C@@H](C3)N4)nn2)ccc1-c1cnc(C)cn1 [Compound 950]")
"100 to 1000 nM"
>>> measured_result("CN(c1ccc(-c2ccc(-c3cn[nH]c3)c(=O)[nH]2)nn1)[C@@H]1C[C@H]2CC[C@@H](C1)N2 [Compound 904]")
"> 10000 nM"
>>> measured_result("COc1nc(-c2ccc(OC3CC4CC(F)(F)C(C3)N4)nn2)cc(F)c1-c1cn[nH]c1 (stereo not shown) [Compound 969]")
"100 to 1000 nM"
>>> measured_result("CN(c1ccc(-c2ccc(-c3cn[nH]c3)c(C#N)n2)nn1)[C@@H]1C[C@H]2CC[C@@H](C1)N2 [Compound 930]")
"< 100 nM"
>>> measured_result("COc1nc(-c2ccc(N(C)[C@@H]3C[C@H]4CC[C@@H](C3)N4)nn2)ccc1-c1cn(C)nn1 [Compound 945]")
"100 to 1000 nM"
>>> measured_result("COc1nc(-c2ccc(NC3CCNCC3)nc2)ccc1-n1cccn1 [Compound 987]")
"1000 to 10000 nM"
>>> measured_result("COc1nc(-c2ccc(N(C)C3CC(C)(C)NC(C)(C)C3)nc2)ccc1-c1cnn(C)c1 [Compound 994]")
"1000 to 10000 nM"
